Assay: S. cerevisiae RM11-1a growth modifiers, primary screen, strain RM11-1a, OD600, basal, 24 h (AID 1177);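 note: cultures grown under basal conditions with no added stressor; test concentration not given here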
Conditions: OD600, 24 h, higher = more signal, called active from +8 up or from −8 down
The compounds listed here are annotated with their z-score.

compound.structure | z-score
COCCOC(=O)N1C(=O)[C@@]2(c3cc(C#CCCO)ccc31)[C@H](c1ccccc1OCCO)N1[C@H](c3ccccc3)[C@H](c3ccccc3)OC(=O)[C@H]1[C@@H]2C(=O)N1CCCCCCC1 | 2.11
CC(C)C[C@@H]1NC(=O)[C@@H]2C[C@H](C(=O)NCCCCCC[N+](C)(C)C)[C@H](c3cccc(OCCO)c3)N2C1=O | -0.0613
COc1ccc(C(=O)Nc2cccc(CN3C(=O)[C@@]4(O[C@@H](CC(=O)N(CCO)Cc5ccccc5)[C@H]([Si](C)(C)c5ccc(OC)cc5)[C@H]4C)c4ccccc43)c2)cc1 | 0.621

----------
The molecules listed here are annotated with their z-score.
Experiment: cell viability in Huh7 cells, primary screen, cytotoxicity control for HCV replication inhibitor project, CellTiter-Glo luminescence, basal, 48 h (AID 1143);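 note: Huh7 hepatoma cells carrying a hepatitis C replication reporter with no stimulus; test concentration not given here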
Details: Huh7 HCV replicon, higher = more signal, called active from +8 up or from −8 down
recorded.metric: z-score

molecule | recorded.metric | readout.number
CCOC(=O)C[C@H]1[C@H](OC(=O)c2ccccc2-c2ccccc2)[C@@H](NC(=O)c2ccccc2)c2cc(OCCCO)ccc2N1C(=O)c1ccccc1 | z-score | -0.208
COCCCNC(=O)[C@@]1(Sc2ccc(C)cc2)CC(=O)N(Cc2ccccc2Cl)[C@@H]1c1ccc(CO)cc1I | z-score | -1.35
COC(=O)[C@@]1(Cc2ccccc2)[C@H]2c3cc(C(=O)N(C)C)n(CCn4cc([N+](=O)[O-])nc4C)c3C[C@H]2CN1C(=O)c1ccccc1 | z-score | -0.65
Cc1cccc([C@H]2C[C@H]3C(Br)=C[C@@H]2C(=O)[C@]32CO2)c1 | z-score | -0.687
CCOC(=O)C1=C[C@@H](c2ccccc2)N(S(=O)(=O)c2ccc(C)cc2)[C@H]1c1ccccc1 | z-score | -1.91
COC(=O)[C@@]1(Cc2ccc(F)cc2)[C@H]2c3cc(C(=O)N(C)C)n(Cc4c(CO)[nH]cc(C)c4=O)c3C[C@H]2CN1C(=O)c1ccccc1 | z-score | -0.401
[N-]=[N+]=NCc1ccccc1[C@H]1OC(c2ccc(OCCCO)cc2)=N[C@@]1(Cc1ccccc1)C(=O)NCCN1CCOCC1 | z-score | -3.01
C=CCC(OC(C)=O)[C@@H]1[C@@H](N(Cc2ccc(-c3cccc(C(F)(F)F)c3)o2)C(=O)c2cccc3ccccc23)c2cc(OCCCO)ccc2N1C(=O)Cc1ccc(OC)cc1 (stereo not given in full) | z-score | -2.29
O=C(CS)NCCCCCNC(=O)[C@@H]1C[C@@H]2C(=O)N[C@@H](Cc3ccccc3)C(=O)N2[C@@H]1c1cccc(OCCO)c1 | z-score | -0.497
COc1ccc(C(O)C2C=CC3C(=O)N(c4ccccc4)C(=O)C3N2Nc2ccc(C(C)C)cc2)c2ccccc12 (stereo not given) | z-score | 0.0927
[N-]=[N+]=Nc1ccccc1C[C@@]1(C(=O)O)N=C(c2ccc(OCCCO)cc2)O[C@@H]1c1ccccc1N=[N+]=[N-] | z-score | -1.92
C=C(CCCC)/C(=C/C[C@H](OC(C)=O)c1ccc(OCCO)cc1)c1cc(C(=O)OC)ccc1OC | z-score | -1.03
CC=CC(O)C1C=CC2C(=O)NC(=O)C2N1Nc1ccccn1 (stereo not given) | z-score | 1.11
O=C1C2C=CC(C(O)c3ccc4c(c3)OCO4)N(Nc3ccccc3)C2C(=O)N1c1ccccc1 (stereo not given) | z-score | -0.924
COc1ccc(C(O)C2C=CC3C(=O)N(c4ccccc4)C(=O)C3N2Nc2ccccc2)cc1 (stereo not given) | z-score | -0.0351
